# credit: paper doi:10.1101/2024.07.30.605799

- system_name: the molecule itself
- test_details: SEC
attribute_measured: stoichiometry N
One number for each entry.

Q) Using the record for human CAD DHO domain bearing S1538A (domain or fragment, UniProt P27708 1456-1846, looked up) MTSQKLVRLPGLIDVHVHLREPGGTHKEDFASGTAAALAGGITMVCAMPNTRPPIIDAPALALAQKLAEAGARCDFALFLGAASENAGTLGTVAGSAAGLKLYLNETFSELRLDSVVQWMEHFETWPSHLPIVAHAEQQTVAAVLMVAQLTQRSVHICHVARKEEILLIKAAKARGLPVTCEVAPHHLFLSHDDLERLGPGKGEVRPELGSRQDVEALWENMAVIDCFASDHAPHTLEEKCGSRPPPGFPGLETMLPLLLTAVSEGRLSLDDLLQRLHHNPRRIFHLPPQEDTYVEVDLEHEWTIPSHMPFSKAHWTPFEGQKVKGTVRRVVLRGEVAYIDGQVLVPPGYGQDVRKWPQGAVPQLPPSAPATSEMTTTPERPRRGIPGLPD , report its stoichiometry N.
A) 2
